- procedure-details: Biodistribution of 68Ga-labeled peptide in mice bearing B16F10 mouse melanoma
- Assay type: in vivo, C57BL/6J mice
- stated-conditions: seminal glands, iv, total radioactivity, 2 h p.i. unblocked, C57BL/6J mice, B16F10 melanoma, read-out: Biodistribution, Seminal glands
measure-name: tissue uptake at 2 h (%ID/g)
Value expressed in %ID/g; do not type the unit.

Find the recorded tissue uptake at 2 h belonging to CCCC[C@H](NC(=O)CN1CCC(NC(=O)CN2CCN(CC(=O)O)CCN(CC(=O)O)CCN(CC(=O)O)CC2)CC1)C(=O)N[C@H]1CC(=O)NCCCC[C@@H](C(N)=O)N(C)C(=O)[C@H](Cc2c[nH]c3ccccc23)N(C)C(=O)[C@H](CCCNC(=N)N)N(C)C(=O)[C@@H](Cc2ccccc2)NC(=O)[C@H](Cc2c[nH]cn2)N(C)C1=O [^68Ga-labeled CCZ01099, metal not drawn] and report it.
0.04
